From: patent US20230120736A1

target: cynomolgus monkey CD98 ECD; assay: Biacore surface plasmon resonance binding kinetics (anti-Fc capture); conditions: cyCD98 ECD
Sequence (as listed by the source): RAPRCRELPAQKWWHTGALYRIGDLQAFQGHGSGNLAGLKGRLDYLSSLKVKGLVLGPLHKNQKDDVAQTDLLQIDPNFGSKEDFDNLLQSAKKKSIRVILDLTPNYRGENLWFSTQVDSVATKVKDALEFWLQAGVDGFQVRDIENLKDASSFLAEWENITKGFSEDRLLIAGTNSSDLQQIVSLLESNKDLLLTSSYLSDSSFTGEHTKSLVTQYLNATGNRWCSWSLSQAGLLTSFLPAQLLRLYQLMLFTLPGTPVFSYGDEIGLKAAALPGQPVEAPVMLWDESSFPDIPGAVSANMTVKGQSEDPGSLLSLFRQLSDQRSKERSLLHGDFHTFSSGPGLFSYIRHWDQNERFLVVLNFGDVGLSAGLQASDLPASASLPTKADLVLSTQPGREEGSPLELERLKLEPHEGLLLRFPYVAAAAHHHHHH
Endpoint Label: kd (s⁻¹)

{"Molecule": "huAb107: \"heavy chain variable sequence of huAb107 is provided in SEQ ID NO: 114\"; \"light chain variable sequence ... in SEQ ID NO: 112\" (antibody, V domains shown) VH: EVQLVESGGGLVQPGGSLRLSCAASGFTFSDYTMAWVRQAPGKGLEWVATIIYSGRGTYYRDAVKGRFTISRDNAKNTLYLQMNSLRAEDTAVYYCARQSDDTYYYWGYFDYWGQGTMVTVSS VL: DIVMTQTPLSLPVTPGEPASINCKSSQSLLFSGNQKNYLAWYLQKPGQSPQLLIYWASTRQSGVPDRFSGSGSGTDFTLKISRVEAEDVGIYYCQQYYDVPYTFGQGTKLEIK", "Endpoint Label": "kd", "Units Of Measure": "s⁻¹", "Test Result": "8.7e-05"}
